Origin of values: ChEMBL document CHEMBL1201862

tested on: SK-OV-3; assay: NCI tumour cell line growth inhibition, 48 h
Activity calls are given as the source filed them. Rule as the data show it: active = GI50 up to about 1.1 µM and inactive = higher.

| molecule | GI50 |
| --- | --- |
| CN1C(c2ccccc2)CC(=O)C(N)C1c1ccccc1 (centres undefined) | > 58.6 µM (inactive) |
| C[C@]12CC[C@H]3[C@@H](CCC4=CC(=O)CC[C@@]43C)[C@]1(O)CC[C@]2(O)C(=O)CO | > 100 µM (inactive) |
| Cc1ccc(NC(=O)CC(=O)N2N=C(N(C)c3ccccc3)CC2c2ccccc2)cc1 (centres undefined) | > 100 µM (inactive) |
| O=S(=O)(c1ccccc1)c1ccc(-c2nc(-c3ccc4c(c3)Sc3ccccc3S4)cs2)cc1 | 18.9 µM (inactive) |

###

test system: A498; test: NCI tumour cell line growth inhibition, 48 h
Active and inactive are the calls of the source. Cut-off read from the data, not from the text of the source: active = GI50 up to about 1.1 µM and inactive = higher.
Possible outcomes: active, inactive

| compound | class |
| --- | --- |
| O=C1/C(=C/c2ccccc2)N=C(c2ccccc2)N1n1c(-c2ccccc2)nc2ccccc2c1=O | inactive |
| Nc1ccccc1C(=O)/C=C/c1ccccc1O | inactive |
| CCOC(=O)Oc1cc2c(c(OC)c1OC)-c1ccc(OC)c(=O)cc1C(NC(C)=O)CC2 (stereo not given) | active |
| CN1C(=O)[C@@H]2[C@@H]3c4ccccc4N[C@@H]3c3[nH]c4ccccc4c3[C@@H]2C1=O | inactive |
| COc1cc(C)cc2c(-c3c(O)cc(O)c4c3C[C@H](C)N[C@H]4C)cc(-c3cc(-c4c(O)cc(O)c5c4C[C@H](C)N[C@H]5C)c4cc(C)cc(OC)c4c3O)c(O)c12 | inactive |
| Cc1n[n+](Cc2ccccc2)c2sc(N)nn12 | inactive |
| O=C(Cc1ccccc1F)NC1=C(Cl)C(=O)c2ccccc2C1=O | inactive |
| COc1ccc(-c2cc(=O)c3ccc(O)cc3o2)cc1OC | inactive |
| COc1ccccc1C(C1=C(O)COC1=O)c1cc2c(cc1OC(C)=O)OCO2 (stereo not given) | inactive |
| CC(C)(C)OC(=O)NCCCCC(NC(=O)c1ccccc1)C(N)=O (stereo not given) | inactive |

###

tested on: NCI/ADR-RES; assay: NCI tumour cell line growth inhibition, 48 h
Counter-ions that a name gives are not always drawn. Active and inactive are the calls of the source. No stated cut-off is given here; in the data, active = GI50 up to about 1.1 µM and inactive = higher.
Possible outcomes: active, inactive

| molecule | class |
| --- | --- |
| c1ccc(-c2nc(-c3ccccc3)c(-c3ccccc3)[nH]2)cc1 | inactive |
| O=C1Cc2c([nH]c3ccc(Cl)cc23)-c2ccccc2N1 | inactive |
| N#Cc1ccc(/C=N/NC(=O)CSCC(=O)N/N=C/c2ccc(C#N)cc2)cc1 | inactive |
| COc1ccc(C#CC(=O)O)c(OC)c1 | inactive |
| CC(NC(=O)C(C)C(=O)Nc1ccc(C(F)(F)F)cc1)C(N)=O (stereo not given) | inactive |
| O=P(O)(O)CCP(=O)(O)O | inactive |
| COC(=O)CC(c1ccccc1)C(C#N)(OP1(=O)OC(c2ccccc2)C(C)N1C)c1ccccc1 (stereo not given) | inactive |
| Cn1c2ccccc2c(=O)c2c(O)cc3c(c21)C1OCC(C)(O)C1O3 (stereo not given) | inactive |
| [N-]=[N+]=Nc1ccc2c(c1)Sc1ccccc1N2CCCCN1CCN(C(=O)CCNC(=O)Cc2ccc(C(=O)c3ccccc3)cc2)CC1 | inactive |
| Cc1c2cccc-2c(N(C)C)cc2c1[nH]c1ccccc12 | inactive |
| C=CCOc1ccc(C2C(C(=O)OCC)C(=O)CC(C)(O)C2C(=O)OCC)cc1OC (stereo not given) | inactive |
| O=C(O)CN1C(=O)CN=C(c2ccccn2)c2cc(Cl)ccc21 | inactive |
| Cn1ccnc1Oc1ccc(Cl)cc1 | inactive |
| C[C@]12C=CC(=O)C=C1CC[C@@H]1[C@@H]2CC[C@]2(C)OC(=O)CC[C@@H]12 | inactive |
| O=C1c2ccccc2CCC1C(O)(C(F)(F)F)C(F)(F)F (stereo not given) | inactive |
| CN[C@@H](C)[C@@H](O)c1ccccc1 [PSEUDOEPHEDRINE HYDROCHLORIDE] | inactive |
| CCOC(=O)c1c[nH]c2c(Sc3ccccc3)nccc2c1=O | inactive |
| C(=N\c1nc2cc3sc(/N=C/c4ccccc4)nc3cc2s1)/c1ccccc1 | inactive |
| CCOC(=O)c1nc2ccccc2nc1NCc1ccc(OC)c(OC)c1 | inactive |
| O=C(Nc1ccn(C2CC(I)C(COC(c3ccccc3)(c3ccccc3)c3ccccc3)O2)c(=O)n1)c1ccccc1 (stereo not given) | inactive |
| COc1ccc(C2c3cc4c(cc3C(O)C3CCC(=O)N23)OCO4)cc1 (stereo not given) | inactive |
| COCCCNc1c2ccccc2nc2ccccc12 | inactive |
| Oc1ccc2c3c1OC1c4[nH]ncc4C[C@H]4[C@@H](C2)N(CC2CC2)CC[C@]314 (stereo not given in full) | inactive |
| Cc1cc(NS(=O)(=O)c2ccc(NC(=O)c3ccc4nc5ccccc5c(Nc5ccc(S(=O)(=O)N=C(N)N)cc5)c4c3)cc2)no1 | inactive |
| COc1c(C)c(OC)c2c(c1O)[C@@H]1[C@@H]3Cc4c(OC)c(C)c(OC)c(O)c4[C@H](CNC(=O)c4ccc5ccccc5n4)N3[C@@H](C#N)[C@H](C2)N1C | active |
